biological target: pyruvate kinase isozyme type M2 (PKM2) (Homo sapiens); assay: SPR with immobilized recombinant human PKM2; format: binding
Sequence (P14618 2-531): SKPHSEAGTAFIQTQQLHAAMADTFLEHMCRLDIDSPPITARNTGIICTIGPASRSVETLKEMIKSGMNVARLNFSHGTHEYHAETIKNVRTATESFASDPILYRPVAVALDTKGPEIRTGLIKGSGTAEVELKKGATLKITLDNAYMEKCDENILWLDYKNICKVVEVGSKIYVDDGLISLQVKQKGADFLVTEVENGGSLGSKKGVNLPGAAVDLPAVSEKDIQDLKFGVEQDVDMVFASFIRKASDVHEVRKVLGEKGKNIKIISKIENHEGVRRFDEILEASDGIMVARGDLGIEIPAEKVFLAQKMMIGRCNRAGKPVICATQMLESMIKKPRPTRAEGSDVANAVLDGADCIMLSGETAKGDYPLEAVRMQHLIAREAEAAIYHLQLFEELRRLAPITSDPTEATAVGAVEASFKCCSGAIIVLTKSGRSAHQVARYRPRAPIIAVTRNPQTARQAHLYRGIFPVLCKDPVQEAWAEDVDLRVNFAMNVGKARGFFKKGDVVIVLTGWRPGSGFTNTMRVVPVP
observable: pKd
Answers are plain numbers, as −log10 of the molar value.

Q. Which measured pKd belongs to C1=Cc2ccccc2Nc2ccccc21 [ISB, Iminostilbene] , tested on pyruvate kinase isozyme type M2 (PKM2) (Homo sapiens)?
A. 4.73
